Exercise: state measured IC50 for each of the compounds provided.
- test system: Histidinol dehydrogenase (Brucella suis biovar 1 (strain 1330))
- Sequence (Q8G2R2 whole entry): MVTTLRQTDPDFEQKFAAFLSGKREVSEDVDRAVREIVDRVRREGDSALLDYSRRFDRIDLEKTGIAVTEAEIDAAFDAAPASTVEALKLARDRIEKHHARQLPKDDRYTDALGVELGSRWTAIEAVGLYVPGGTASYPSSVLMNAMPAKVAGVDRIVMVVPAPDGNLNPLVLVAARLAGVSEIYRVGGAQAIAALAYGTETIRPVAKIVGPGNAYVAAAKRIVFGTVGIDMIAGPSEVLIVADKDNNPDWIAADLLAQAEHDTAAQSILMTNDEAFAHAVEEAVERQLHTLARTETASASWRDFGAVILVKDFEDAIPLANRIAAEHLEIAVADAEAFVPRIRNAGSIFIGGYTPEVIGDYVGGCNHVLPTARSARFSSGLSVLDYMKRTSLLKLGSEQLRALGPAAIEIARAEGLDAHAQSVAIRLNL
- measurement protocol: Inhibition of Brucella suis 1330 His6-tagged HDH expressed in Escherichia coli BL21 (DE3) using L-histidinol as substrate assessed as NADH formation preincubated for 5 mins followed by substrate addition
Report the figure in µM without appending any unit label.

QUERY: Quick one: IC50 for N[C@@H](Cc1c[nH]cn1)C(=O)COc1ccc(F)cc1 ?
RESULT: 4.7

QUERY: # input compound: N[C@@H](Cc1c[nH]cn1)C(=O)COc1ccc(Br)cc1 ; wanted: its IC50
RESULT: 1.6

QUERY: Please give the measured IC50 for this compound: N[C@@H](Cc1c[nH]cn1)C(=O)CSc1c(F)c(F)c(F)c(F)c1F
RESULT: 19.2

QUERY: IC50 for Cc1ccc(OCC(=O)[C@@H](N)Cc2c[nH]cn2)cc1 ?
RESULT: 0.208

This collection of values is drawn from ChEMBL document CHEMBL3217505.
